Values compiled from PubChem BioAssay.

System: Chordin-like protein 2 (CHRDL2)
Test: compounds binding chordin-like 2 – biochemical, small-molecule microarray, 635 nm fluorescence, primary screen (AID 1126);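 note: printed compound slides probed with Chrdl2 protein at 4 µg/mL for 1 h at 4 C; score merges 667 nm emission intensity with signal to noise over three replicate slides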
Conditions: fluorescence 635 nm, higher = more signal
Where composite z-score equals or exceeds 0.8, the correct label is YES; where it does not, the label is NO.

Field: example entries. Status: answers known.
COc1cc(NN2C(C(O)c3ccccc3)C=CC3C(=O)N(c4ccccc4)C(=O)C32)cc(OC)c1OC (stereo not given)
NO
C=C[C@H](C)[C@H](O)c1ccc(OCCO)cc1
NO
[N-]=[N+]=NCc1ccccc1[C@@H]1OC(c2ccc(OCCCO)cc2)=N[C@]1(Cc1ccccc1)C(=O)O
NO

// query Could you please find out whether C=CCN1Cc2ccccc2C[C@]2(N=C(c3ccc(OCCCO)cc3)O[C@@H]2c2ccccc2)C1=O has composite z-score that meets 0.8 or exceeds it?
// result YES

----------
Assay: JC-1 mitochondrial signal, unstimulated myeloma cells – cell-based, JC-1 fluorescence, RPMI8226, 24 h, 100 nL compound, profiling panel (AID 1169); note: test concentration not given here
Conditions: JC-1 mitochondrial potential fluorescence, higher = more signal
Observed Property: z-score
Note: the reply should be a number with no unit written.

Consider the following illustrative entries.
NC(=O)NCC#Cc1ccc2c(c1)[C@]1(C(=O)N2)[C@H](c2ccc(O)cc2)N2[C@H](c3ccccc3)[C@H](c3ccccc3)OC(=O)[C@H]2[C@@H]1C(=O)N1CCN(c2ncccn2)CC1
0.591
C[C@H]1C2[C@H](Cc3ccccc3)NC(=O)[C@]23C(=O)N[C@H](Cc2ccccc2)C(=O)N[C@H](Cc2ccccc2)C(=O)NC/C=C/CCC/C=C/C3[C@@H]2O[C@]12C (stereo partly drawn)
-0.469

Now consider the entry below.
// query Tell me measured z-score for COc1ccc([Si](C)(C)[C@@H]2[C@@H](CCO)O[C@]3(C(=O)N(Cc4ccc(N5C(=O)c6cccc7cccc5c67)cc4)c4ccccc43)[C@H]2C)cc1 please.
// result -1.11

----------
Tested on: Plasmodium falciparum Sir2 (PF13_0152, Sir2A)
Experiment: Plasmodium falciparum Sir2A binding compounds – biochemical, small-molecule microarray, 635 nm fluorescence, primary screen (AID 1098);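 note: score merges spot fluorescence intensity with its signal-to-noise ratio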
Conditions: fluorescence 635 nm, higher = more signal
Observed Property: composite z-score
Note: the reply should be a number with no unit written.

NC(=O)[C@@]1(CCS(=O)(=O)c2ccccc2)N=C(c2ccc(OCCCO)cc2)O[C@H]1c1ccccc1
1.28

// query Tell me measured composite z-score for CCOC(=O)C=Cc1cccc(OC)c1O please.
// result -0.0095

// query Tell me measured composite z-score for Cc1ccc(S[C@]2(C(=O)NCCCN(C)C)CC(=O)N(C(C)C)[C@@H]2c2ccc(CO)cc2I)cc1 please.
// result 1.37

// query Tell me measured composite z-score for [N-]=[N+]=Nc1ccccc1C[C@]1(C(=O)N2CCCCC2)N=C(c2ccc(OCCCO)cc2)O[C@H]1c1ccccc1N=[N+]=[N-] please.
// result 1.42

// query Tell me measured composite z-score for COc1ccc(C#Cc2ccc3c(c2)[C@]2(C(=O)N3)[C@H](c3ccc(OCCO)cc3)N3[C@H](c4ccccc4)[C@H](c4ccccc4)OC(=O)[C@H]3[C@@H]2C(=O)Nc2nc3ccccc3s2)cc1 please.
// result 1.29

// query Tell me measured composite z-score for COc1ccc([Si](C)(C)[C@H]2[C@H](CC(=O)N3CCC[C@H]3CO)O[C@@]3(C(=O)N(c4ccccc4)c4ccccc43)[C@@H]2C)cc1 please.
// result 1.28

// query Tell me measured composite z-score for O=C(CS)NCCCCCCNC(=O)[C@H]1C[C@H]2C(=O)N3CCC[C@H]3C(=O)N2[C@H]1c1ccc(O)cc1 please.
// result 1.63

// query Tell me measured composite z-score for COC(=O)[C@@]1(Cc2ccc(F)cc2)[C@H]2c3cc(C(=O)N(C)C)n(Cc4ccccn4)c3C[C@H]2CN1C(=O)c1ccccc1 please.
// result 1.19

// query Tell me measured composite z-score for CC1CC/C=C\[C@H]2OC34C=CCN(c5ccc6ccccc6c5)C(=O)[C@H]3N(CCCCCO)C(=O)[C@@H]4C2C(=O)O1 (stereo partly specified) please.
// result 0.207

// query Tell me measured composite z-score for O=C(CS)NCCCCCNC(=O)[C@H]1C[C@H]2C(=O)N[C@@H](Cc3ccccc3)C(=O)N2[C@H]1c1cccc(OCCO)c1 please.
// result 1.4

// query Tell me measured composite z-score for Cc1ccc(S[C@]2(C(=O)NCCCN(C)C)CC(=O)N(Cc3ccccc3)[C@@H]2c2ccc(CO)cc2)cc1 please.
// result -1.43
